tested-on: human orexin-2 receptor (Homo sapiens (Human))
Sequence (O43614 whole entry): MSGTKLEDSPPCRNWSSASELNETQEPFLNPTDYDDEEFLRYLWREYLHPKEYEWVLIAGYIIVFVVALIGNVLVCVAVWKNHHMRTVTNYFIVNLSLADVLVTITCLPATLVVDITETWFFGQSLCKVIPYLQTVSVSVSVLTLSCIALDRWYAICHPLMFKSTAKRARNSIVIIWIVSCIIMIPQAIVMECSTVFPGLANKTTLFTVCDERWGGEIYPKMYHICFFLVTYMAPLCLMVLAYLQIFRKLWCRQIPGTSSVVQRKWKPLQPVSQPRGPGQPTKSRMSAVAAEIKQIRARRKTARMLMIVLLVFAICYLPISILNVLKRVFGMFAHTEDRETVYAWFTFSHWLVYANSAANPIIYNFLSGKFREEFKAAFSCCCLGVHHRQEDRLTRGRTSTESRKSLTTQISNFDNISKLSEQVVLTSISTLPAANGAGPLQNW
assay-method-text: Intracellular calcium measurement (FLIPR), CHO cells expressing human orexin-2 receptor, 3 nM orexin-A
Type: cell-based
test-settings: CHO cells expressing human orexin-2 receptor, FLIPR, 3 nM orexin-A; geometric mean if determined several times; read-out: IC50 OX2
Experimental: In Vitro Assay: Intracellular Calcium Measurements: […] Within the Fluorescent Imaging Plate Reader (FLIPR Tetra, Molecular Devices), antagonists are added to the plate in a volume of 10 μL/well, incubated for 120 min and finally 10 μL/well of agonist is added. Fluorescence is measured for each well at 1 second intervals, and the height of each fluorescence peak is compared to the height of the fluorescence peak induced by 3 nM orexin-A with vehicle in place of antagonist. […]
assay-endpoint: IC50 (nM)

>>> data_value("Cc1ccc(-c2ncccn2)c(C(=O)N2CCC[C@H]2c2nc(-c3cccc(Cl)c3C)no2)c1")
29

(1) O=C(c1ccccc1-c1ccccc1)N1CCC[C@H]1c1nc(-c2ccccc2OC(F)(F)F)no1
(2) COc1cc(O)ccc1-c1noc([C@@H]2CCCN2C(=O)c2cc(C)ccc2-n2nccn2)n1
Asked: Please compare: 1 and 2 . Report which one has the smaller IC50 value. Mark your answer with the label of the selected entry.
Given back: 1

---

Catalogue of molecules with associated effect on REM sleep
Tested on: Wistar rats
assay-method-text: Sleep effects: EEG, EMG and behavioural indices of alertness by radiotelemetry
Format: in vivo
test-settings: 100 mg/kg po; effects analyzed over 12 hours; compared to vehicle controls

Below: 3 molecules and their reported effect on REM sleep.
>>> data_value("Cc1ccc(C(=O)N2CCC[C@H]2c2nnc(-c3ccccc3OC(F)(F)F)[nH]2)c(-n2nccn2)c1")
"+47.0%"
>>> data_value("COc1cc(C(=O)N2CCC[C@H]2c2nc(-c3ccccc3OC(F)(F)F)no2)c(-n2nccn2)cc1C")
"+0.9%"
>>> data_value("Cc1cc(C(=O)N2CCC[C@H]2c2nc(-c3cccc(Cl)c3C)no2)c(-n2nccn2)cc1C")
"+7.8%"

From here, focus on the item given below.
Value of measured effect on REM sleep for the entry `COc1cc(C(=O)N2CCC[C@H]2c2noc(-c3ccccc3OC(F)(F)F)n2)c(-n2nccn2)cc1C` : +35.2%

---

tested-on: UniProt O43613
Sequence (O43613 whole entry): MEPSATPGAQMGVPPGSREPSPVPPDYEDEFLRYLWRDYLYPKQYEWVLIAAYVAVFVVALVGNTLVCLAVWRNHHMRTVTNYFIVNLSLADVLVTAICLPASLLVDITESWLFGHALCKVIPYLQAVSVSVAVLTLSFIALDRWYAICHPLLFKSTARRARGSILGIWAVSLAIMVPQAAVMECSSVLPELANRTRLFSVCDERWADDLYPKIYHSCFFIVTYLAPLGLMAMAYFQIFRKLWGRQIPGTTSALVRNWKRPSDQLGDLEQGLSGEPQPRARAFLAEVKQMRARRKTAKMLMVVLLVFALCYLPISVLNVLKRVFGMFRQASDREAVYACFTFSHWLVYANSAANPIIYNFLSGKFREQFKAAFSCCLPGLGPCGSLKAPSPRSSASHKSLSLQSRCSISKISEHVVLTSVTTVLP
assay-method-text: Intracellular calcium measurement (FLIPR), CHO cells expressing human orexin-1 receptor, 3 nM orexin-A
Type: cell-based
test-settings: CHO cells expressing human orexin-1 receptor, FLIPR, 3 nM orexin-A; geometric mean if determined several times; read-out: IC50 OX1
pIC50: −log10 of the molar value.
assay-endpoint: pIC50

>>> data_value("Cc1cc(C(=O)N2CCC[C@H]2c2nc(-c3ccccc3C(F)(F)F)no2)c(-n2nccn2)cc1C")
7.07
>>> data_value("Cc1ccc(-c2ncccn2)c(C(=O)N2CCC[C@H]2c2nc(-c3cccc(Cl)c3C)no2)c1")
6.77

(I) Cc1cc(F)cc(C(=O)N2CCC[C@H]2c2nc(-c3ccccc3OC(F)(F)F)no2)c1-n1nccn1
(II) CCOc1c(F)cccc1-c1nc([C@@H]2CCCN2C(=O)c2cc(OC)c(F)cc2-n2nccn2)no1
Asked: Please compare: I and II . Report which one has the smaller pIC50 value. Mark your answer with the label of the selected entry.
Given back: I

---

tested-on: UniProtKB O43614
assay-method-text: Intracellular calcium measurement (FLIPR), CHO cells expressing human orexin-2 receptor, 3 nM orexin-A
Type: cell-based
test-settings: CHO cells expressing human orexin-2 receptor, FLIPR, 3 nM orexin-A; geometric mean if determined several times; read-out: IC50 OX2
pIC50: −log10 of the molar value.
assay-endpoint: pIC50

>>> data_value("O=C(c1ccccc1-n1nccn1)N1CCC[C@H]1c1nc(-c2ccccc2C(F)(F)F)no1")
6.88
>>> data_value("CCOc1ncccc1-c1noc([C@@H]2CCCN2C(=O)c2nc(C)ccc2-n2nccn2)n1")
7.34

(P) CCOc1ccccc1-c1noc([C@@H]2CCCN2C(=O)c2nc(C)ccc2-n2nccn2)n1
(Q) CCOc1ncccc1-c1noc([C@@H]2CCCN2C(=O)c2cc(OC)c(C)cc2-n2nccn2)n1
Asked: Compare P and Q by numeric pIC50 and name the larger one. Mark your answer with the label of the selected entry.
Given back: Q
(Q: 8.52, P: 7.00)
